assay: compounds altering circadian rhythm period length – cell-based, LOPAC library, luminescence reporter (AID 2774); settings: circadian reporter cells, at 7 µM, actives lie on both sides;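 further: values are relative to mean of DMSO wells on each plate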
Activity calls are given as the source filed them. How the calls were made is not given here.
Readout Label: period change

>>> result("COc1ccc(-c2ccc(N)[n+](CCCC(=O)O)n2)cc1")
"0.235 h (inactive)"
>>> result("Cc1nc2sccn2c(=O)c1CCN1CCC(=C(c2ccccc2)c2ccc(F)cc2)CC1")
"-0.05 h (inactive)"
>>> result("CC(=O)O[C@H]1C[C@@H]2CC[C@@H]3[C@H](CC[C@@]4(C)[C@H]3C[C@H]([N+]3(C)CCCCC3)[C@@H]4OC(C)=O)[C@@]2(C)C[C@@H]1[N+]1(C)CCCCC1")
"-0.015 h (inactive)"
>>> result("CC1(C)C(=O)N(CCN2CCC(C(=O)c3ccc(F)cc3)CC2)c2ccccc21")
"0.085 h (inactive)"
>>> result("O=S(=O)(c1cccc2c(I)cccc12)N1CCCNCC1")
"0.03 h (inactive)"
>>> result("CC(C)(C)c1cc(/C=C(\\C#N)C(N)=S)cc(C(C)(C)C)c1O")
"0.535 h (inactive)"
>>> result("COc1ccc2[nH]c(I)c(CCNC(C)=O)c2c1")
"-0.075 h (inactive)"
>>> result("CCCCCCCCCCC/C=C\\C(C)(C)/C=C\\CCCC(=O)O")
"-0.11 h (inactive)"
